- System: MCF7 breast
- assayDetails: NCI tumour cell line growth inhibition, 48 h; in the data active = GI50 below about 0.43 µM; inactive = the rest
// allowed return values: active, inactive

Answered examples (4):
Incoming: Identify the outcome logged in this assay for the molecule shown: CCN(Cc1ccc(Cl)c(Cl)c1)c1ccc2nc(N)nc(N)c2c1C
Outgoing: active

Incoming: Identify the outcome logged in this assay for the molecule shown: COc1cc(/C=C/C(=O)c2c(C)n([O-])c3ccccc3[n+]2=O)cc(OC)c1OC
Outgoing: inactive

Incoming: Identify the outcome logged in this assay for the molecule shown: COc1cc(C[C@H]2COC(=O)[C@]2(O)Cc2ccc(OCc3ccccc3)c(OC)c2)ccc1OCc1ccccc1
Outgoing: inactive

Incoming: Identify the outcome logged in this assay for the molecule shown: COC(=O)CNC(=O)C(=O)c1c(O)c(O)c(C(C)C)c2cc(C)c(-c3c(C)cc4c(C(C)C)c(O)c(O)c(C(=O)C(=O)NCC(=O)OC)c4c3O)c(O)c12
Outgoing: inactive

New cases:
Incoming: Identify the outcome logged in this assay for the molecule shown: CN(c1cccc(C(=O)O)c1)c1cc(O/N=[N+](\[O-])N(C)C)c([N+](=O)[O-])cc1[N+](=O)[O-]
Outgoing: inactive
